- MEASUREMENT_TARGET: Mitogen-activated protein kinase 1 (Homo sapiens)
- STATED_CONDITIONS: Compound concentration 20.0 uM, Protein concentration 2.0 uM, Result type QC Liability
- Description: Thermal Shift Assay. Domain: start/stop: M1-S360
Threshold 0.09 °C. ΔTm below it: class 1. ΔTm at it or above: class 0.

{"columns": ["MOLECULE", "CATEGORY"],
 "data": [
  ["CC(C)S(=O)(=O)c1ccccc1Nc1nc(N[C@@H]2CCCN(CCCCCCCNC(=O)COc3cccc4c3C(=O)N(C3CCC(=O)N(C)C3=O)C4=O)C2)ncc1Cl (stereo partly drawn)", "class 0"],
  ["COc1ccccc1Nc1nc(-c2nn(Cc3c(F)cc(OCCCO)cc3F)c3ccccc23)ncc1OC", "class 0"],
  ["C[C@H]1CN(C2COC2)CCN1c1ccc(Nc2cc(-c3ccnc(N4CCn5c(cc6c5CC(C)(C)C6)C4=O)c3CO)cn(C)c2=O)nc1", "class 1"],
  ["COc1cc2ncnc(Nc3ccc4c(cnn4Cc4ccccc4)c3)c2cc1OC", "class 1"],
  ["C=C1/C(=C\\C=C2/CCC[C@]3(C)[C@@H]([C@H](C)CCCC(C)(C)O)CC[C@@H]23)C[C@@H](O)C[C@@H]1O", "class 1"],
  ["CCN(C(=O)c1cc(F)ccc1Oc1cncnc1N1CC2(CCN(C[C@H]3CC[C@H](NS(=O)(=O)CC)CC3)CC2)C1)C(C)C", "class 0"],
  ["O=C1CN(c2ccccc2F)C(NCCN2CCOCC2)=C1c1nc2cc(Br)ccc2c(=O)[nH]1", "class 0"]
]}

---

The following molecules are listed with their measured ΔTm values.
- MEASUREMENT_TARGET: Aurora kinase A (Homo sapiens)
- Sequence (whole entry): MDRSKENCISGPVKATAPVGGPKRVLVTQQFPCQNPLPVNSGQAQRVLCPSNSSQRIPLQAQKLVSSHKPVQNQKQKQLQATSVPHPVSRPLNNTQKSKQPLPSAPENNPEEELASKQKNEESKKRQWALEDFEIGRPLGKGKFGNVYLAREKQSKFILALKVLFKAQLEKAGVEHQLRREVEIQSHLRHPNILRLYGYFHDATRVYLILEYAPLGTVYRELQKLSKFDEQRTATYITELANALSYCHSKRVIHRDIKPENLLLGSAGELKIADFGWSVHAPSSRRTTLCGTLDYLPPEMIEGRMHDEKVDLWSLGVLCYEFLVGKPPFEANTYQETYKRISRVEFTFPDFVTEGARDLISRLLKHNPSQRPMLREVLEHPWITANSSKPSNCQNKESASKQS
- STATED_CONDITIONS: Compound concentration 20.0 uM, Protein concentration 2.0 uM, Result type QC Liability
- Description: Thermal Shift Assay. Domain: start/stop: E122-S403
MEASUREMENT_KIND: ΔTm (°C)

{"columns": ["MOLECULE", "RECORDED_NUMBER"],
 "data": [
  ["CSc1nc2c(c(=O)n(C)c(=O)n2C)n1C", -0.13],
  ["COc1cc(C(N)=O)ccc1Nc1ncc2c(n1)N(CCC(C)C)[C@H](C)C(=O)N2C", -0.69],
  ["Cc1nc(-c2ccc(C(F)(F)F)cc2)sc1C(=O)NCc1ccc(OC(C)(C)C(=O)O)cc1", 0.59],
  ["CC(=O)c1ccc2c(c1)/C(=C(/Nc1cccc(C#N)c1)c1ccc3c(c1)OCCO3)C(=O)N2", 4.32],
  ["C[C@H](NC(=O)c1cc(Cl)ccc1Oc1ccc(F)cc1)c1ccc(C(=O)O)cc1", -0.14],
  ["O=C(N[C@H](Cc1ccccc1)C(=O)O)c1cccc(OCc2cccnc2)c1", -0.05],
  ["O=C1NC(=NCc2cccs2)SC1=Cc1ccc2ncccc2c1", -0.94],
  ["CC/C(=C(\\c1ccccc1)c1ccc(OCCN(C)C)cc1)c1ccccc1", -2.91],
  ["Cc1cc(CN(CC(=O)Nc2ccc(Cl)cc2Cl)C2CCCCC2)ccc1OCC(=O)O", -2],
  ["Cn1cncc1-c1cn(-c2cccc(C(=O)Nc3cccc(C(F)(F)F)c3)c2)nn1", 1.95],
  ["CCc1ccc(-c2ncn(CC3(F)CCN(C)CC3)c2-c2ccnc3[nH]ccc23)nc1", -1.06],
  ["CCCS(=O)(=O)Nc1ccc(F)c(Nc2ncnc3cnc(-n4cnc(C)c4)nc23)c1F", -0.24],
  ["O=C1Nc2ccc(I)cc2/C1=C/c1cc(Br)c(O)c(Br)c1", -0.27],
  ["CN(CC(=O)Nc1ccc(F)c(F)c1F)C(=O)c1ccc2c(c1)OCCO2", -0.17],
  ["CC(C)Nc1ncnc2cc(OCc3cccc([S@@](C)(=N)=O)c3)c(Br)cc12", 4.25],
  ["O=C1Nc2ccc(C(=O)c3ccco3)cc2C1=Cc1cc(Cl)c(O)c(Cl)c1", 5.03],
  ["Cc1cc(Cn2c(N3CC4(CNC4)C3)nc3c(N4CCN(C)CC4)cc(Cl)cc32)cc(C)c1F", 0.07],
  ["CCOC(=O)C1Cc2ccccc2CN1C(=O)c1ccc(SC)s1 (stereo not drawn)", -1.2],
  ["C#Cc1cnc2[nH]cc(-c3cccc4c3CCN4C(=O)[C@@H]3CCCN3C#N)c2c1", 4.94],
  ["Nc1ncnc2c1ccn2[C@@H]1O[C@H]([C@@H](O)c2ccccc2)[C@@H](O)[C@H]1O", -1.22],
  ["CCCCCNC(=O)N1CCC(CN(Cc2ccc(Cl)cc2)Cc2ccc([N+](=O)[O-])s2)C1 (stereo not drawn)", -0.9],
  ["CC1(C)CCC(CN2CCN(c3ccc(C(=O)NS(=O)(=O)c4ccc(NCC5CCOCC5)c([N+](=O)[O-])c4)c(Oc4cnc5[nH]ccc5c4)c3)CC2)=C(c2ccc(Cl)cc2)C1", 0.44],
  ["CC(=O)c1c(C)c2cnc(Nc3ccn(C)n3)nc2n(C2CCCC2)c1=O", 0.47],
  ["CN(C)[C@H]1CC[C@H](Nc2ncc3ncnc(Nc4ccc(F)c(Cl)c4)c3n2)CC1", 0.2],
  ["CC[C@H](CO)Nc1nc(Nc2cccc(-c3ccccn3)c2)c2ncn(C(C)C)c2n1", 4.01],
  ["CN(CCCCCCC1=C(c2cc(F)cc(F)c2)CCCc2cc(O)ccc21)CCCCS(=O)(=O)CCCC(F)(F)F", 0.84],
  ["CC1CCN(C(=O)[C@H](CCn2cccc2C#N)NS(=O)(=O)c2cccc3[nH]ccc23)CC1", -0.11],
  ["C=C(F)C(=O)N1CCN(c2nc(OC[C@@H]3CCCN3C)nc3c2CCN(c2cccc4cccc(Cl)c24)C3)C[C@@H]1CC#N", -0.49],
  ["CN(C)CCC[C@@]1(c2ccc(F)cc2)OCc2cc(C#N)ccc21", -0.23],
  ["CCN1C(=O)N(c2c(F)c(OC)cc(OC)c2F)Cc2cnc3[nH]c(CN4CCOCC4)cc3c21", 1.85],
  ["CC[C@@H](C(=O)OC)n1c(=O)c2ccccc2n(Cc2cn(C)c3cccc(C)c23)c1=O", -0.05],
  ["CC(C)(C)c1cnc(CSc2cnc(NC(=O)C3CCNCC3)s2)o1", 4.45],
  ["COc1ncc(-c2cc(-c3ncc(CN4C[C@@H](C)O[C@@H](C)C4)o3)c3cn[nH]c3c2)cc1NS(C)(=O)=O", 1.26],
  ["Cc1cc(-c2nc(-c3ccc(OC(F)(F)F)cc3)no2)nn1Cc1ccnc(N2CCN(C3CC3)CC2)c1", -3.42],
  ["Oc1c(CN2CCCC2)cc(COCc2ccccc2)c2cccnc12", -1.78],
  ["CC(C)N(CCCCOCC(=O)O)c1cnc(-c2ccccc2)c(-c2ccccc2)n1", -1.44],
  ["CCN(C)S(=O)(=O)Nc1cccc(-c2ccc3c(NC(=O)C4CC4)n[nH]c3c2)c1", 4.06],
  ["COc1ccc(F)c(F)c1C(=O)c1cnc(NC2CCN(S(C)(=O)=O)CC2)nc1N", 0.02]
]}

---

- MEASUREMENT_TARGET: Cyclin-dependent kinase 2 (Homo sapiens)
- STATED_CONDITIONS: Compound concentration 20.0 uM, Protein concentration 2.0 uM, Result type QC Liability
- Description: Thermal Shift Assay. Domain: start/stop: M1-L298
Where ΔTm equals or exceeds 0.4 °C, the correct label is 1; where it does not, the label is 0.

{"columns": ["COMPOUND", "MEASUREMENT_TARGET", "CATEGORY"],
 "data": [
  ["Nc1ncc2c(n1)-c1c([nH]c3ccc(C4=CCOCC4)cc13)CCC2", "Cyclin-dependent kinase 2 (Homo sapiens)", 1],
  ["COc1ccc(-c2cc3c(C)nc(N)nc3n([C@H]3CC[C@H](OCCO)CC3)c2=O)cn1", "Cyclin-dependent kinase 2 (Homo sapiens)", 0],
  ["Cc1cnc(Nc2ccc(C(=O)N3CCN(C)CC3)cc2)nc1N[C@@H]1CCC[C@@H]1C(N)=O", "Cyclin-dependent kinase 2 (Homo sapiens)", 1],
  ["COc1cc(Oc2nc(-c3ccc(NC(=O)C4CCOC4)cc3)nn3c(C)nc(C)c23)cc(OC)c1OC (configuration not stated)", "Cyclin-dependent kinase 2 (Homo sapiens)", 1],
  ["Cc1nc2cccnc2n2c(-c3cc([C@@]4(O)CCCOC4)ccc3Cl)nnc12", "Cyclin-dependent kinase 2 (Homo sapiens)", 1],
  ["CCn1ccc(Nc2ncc3c(n2)-c2c(nn(C)c2-c2ccc(-c4cnn(C)c4)cc2Cl)CC3)n1", "Cyclin-dependent kinase 2 (Homo sapiens)", 1],
  ["O=C(Nc1snnc1C(=O)Nc1ccc(N2CCCC2)cc1)c1cncc(C(F)(F)F)c1", "Cyclin-dependent kinase 2 (Homo sapiens)", 1],
  ["CCN(C(=O)CO)[C@H]1CN(/C(=N\\C#N)Nc2cccc(OC(F)F)c2)N=C1c1ccc(Cl)c(Cl)c1", "Cyclin-dependent kinase 2 (Homo sapiens)", 0],
  ["CO[C@H]1C[C@@H]2CC[C@@H](C)[C@@](O)(O2)C(=O)C(=O)N2CCCC[C@H]2C(=O)O[C@H]([C@H](C)C[C@@H]2CC[C@@H](O)[C@H](OC)C2)CC(=O)[C@H](C)/C=C(\\C)[C@@H](O)[C@@H](OC)C(=O)[C@H](C)C[C@H](C)/C=C/C=C/C=C/1C", "Cyclin-dependent kinase 2 (Homo sapiens)", 0],
  ["Cc1cc(=O)oc2cc(NC(=O)[C@H](Cc3ccc(I)cc3)NC(=O)[C@H]3N[C@@H]4CC[C@H]3C4)ccc12", "Cyclin-dependent kinase 2 (Homo sapiens)", 0],
  ["CC1=C(C(=O)OCCO)[C@@H](c2ccc(C#N)cc2)NC(=O)N1c1cccc(C(F)(F)F)c1", "Cyclin-dependent kinase 2 (Homo sapiens)", 0],
  ["COc1cc(F)ccc1-c1cc(Nc2cc(CS(C)(=N)=O)ccn2)ncc1F (configuration not stated)", "Cyclin-dependent kinase 2 (Homo sapiens)", 1],
  ["Cn1nc(C(=O)NCc2ccc(C(=O)O)cc2)cc1-c1ccc2[nH]ccc2c1", "Cyclin-dependent kinase 2 (Homo sapiens)", 1],
  ["COc1cc2nc([C@@H]3CCCS(=O)(=O)C3)n(C)c2cc1NC(=O)c1cccc(C(C)(F)F)n1", "Cyclin-dependent kinase 2 (Homo sapiens)", 0],
  ["Cc1[nH]nc(C(F)(F)F)c1Cc1sc2c(c1C(=O)N1C[C@](C)(O)CO1)c(=O)n(C)c(=O)n2C(C)C", "Cyclin-dependent kinase 2 (Homo sapiens)", 1],
  ["CNc1ncc2cc(-c3ccc(-c4cccc(C)n4)cc3Cl)c(=O)n(C[C@H]3OC[C@H](N)CO3)c2n1", "Cyclin-dependent kinase 2 (Homo sapiens)", 1]
]}

Cited source: ChEMBL document CHEMBL5308504
